Please go through the items and note down their inhibition.
target: Insulin-like growth factor 1 receptor (Homo sapiens); conditions: at 0.1 µM;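 also: values are mean percent inhibition of IGF1R kinase activity, from the GSK published kinase inhibitor set (PKIS) screening panel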
Mention the unit after the number when you answer.

Request: Identify measured inhibition associated with c1ccc(-c2nc3n(c2-c2ccc4c(c2)OCO4)CCC3)nc1
Response: 9.41%

Request: Output inhibition of CS(=O)(=O)CCNCc1coc(-c2ccc3ncnc(Nc4ccc(OCc5ccccc5)cc4)c3c2)c1
Response: 0.62%

Request: Provide only the value of recorded inhibition for COc1ccc(CNC(=O)c2ccc(-c3cc(-c4nnc(C)o4)ccc3C)cc2)cc1
Response: -2.65%

Request: Item COc1ccc(-c2oc3ncnc(N)c3c2-c2ccc(NC(=O)Nc3cc(C(F)(F)F)ccc3F)cc2)cc1 : provide inhibition
Response: 4.58%

Request: For the molecule Cc1cccc(Nc2ncc(-c3ccccc3)o2)c1 , give its measured inhibition value.
Response: 4.44%

Request: Indicate its recorded inhibition; the molecule in question is O=C(O[C@H]1CN[C@H](C#Cc2cc3ncnc(Nc4ccc(Cc5ccccc5)cc4)c3s2)C1)N1CCOCC1
Response: -3.02%

Request: Look up and report measured inhibition for this entry: CCn1c(-c2nonc2N)nc2cnc(Oc3cccc(NC(=O)c4ccc(N(C)C)cc4)c3)cc21
Response: -0.26%

Request: Fill in inhibition for record COc1ccc(-c2cc3c(N)ncnc3o2)cc1
Response: -3.63%

Request: Supply recorded inhibition for NS(=O)(=O)c1ccc(Nc2ncc(-c3ccccc3)o2)cc1 here.
Response: 3.39%

Request: Using the record for CNC(=O)c1cc(-c2ccc(F)cc2)cc(-c2ccc(S(=O)(=O)N3CCCC3)cc2)c1N , state its measured inhibition.
Response: 0.57%

###

Exercise: for every item that follows, state its recorded inhibition.
molecular target: Proto-oncogene tyrosine-protein kinase receptor Ret (Homo sapiens); conditions: at 0.1 µM;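 also: reported figure is the mean of RET inhibition measurements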
Provide only the numeric value, understood in %.

Request: Tell me measured inhibition for CN1CCC(n2cnc(-c3ccc(F)cc3)c2-c2ccnc(N)n2)CC1 please.
Response: 5.6

Request: Please give measured inhibition of the following entry: Cc1cccc2c1NC(=O)/C2=N\Nc1ccc(S(N)(=O)=O)cc1
Response: 1.83

Request: Give inhibition for the following compound: CCCN1CCC(c2ccc(Nc3nc(Nc4cc(F)ccc4C(N)=O)c4cc[nH]c4n3)c(OC)c2)CC1
Response: 9.07

Request: Give recorded inhibition. Fc1cccc(COc2ccc(Nc3ncnc4sc(-c5ccco5)cc34)cc2Cl)c1
Response: 3.58

Request: Look up and state reported inhibition for COc1ccc(-c2cc(-c3c[nH]nc3-c3ccccn3)ccn2)cc1
Response: 5.33

###

biological target: MAP kinase-activated protein kinase 2 (Homo sapiens) (UniProt P49137); conditions: at 1 µM;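 also: values are mean inhibition from the GSK PKIS screen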
Sequence (P49137 whole entry, looked up): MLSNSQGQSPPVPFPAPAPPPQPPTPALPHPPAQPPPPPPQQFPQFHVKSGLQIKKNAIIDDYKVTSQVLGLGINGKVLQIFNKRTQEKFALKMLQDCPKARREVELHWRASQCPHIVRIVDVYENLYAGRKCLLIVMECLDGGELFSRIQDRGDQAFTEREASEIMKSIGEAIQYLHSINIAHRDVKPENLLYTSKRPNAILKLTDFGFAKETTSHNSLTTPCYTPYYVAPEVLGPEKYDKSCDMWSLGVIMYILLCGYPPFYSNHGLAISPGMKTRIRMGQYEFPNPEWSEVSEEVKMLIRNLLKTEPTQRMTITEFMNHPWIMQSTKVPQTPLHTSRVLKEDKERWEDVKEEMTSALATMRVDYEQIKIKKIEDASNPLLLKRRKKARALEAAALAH
Think of 2% as a floor: if inhibition stands on it or above, it is t; beneath it, f.

Request: Is inhibition for COC(=O)Nc1nc2ccc(S(=O)(=O)c3ccc(NC(=O)Nc4cc(C(F)(F)F)ccc4F)cc3)cc2[nH]1 at or above 2%?
Response: f

Request: Hi, just wondering whether O=S(=O)(CCNCc1ccc(-c2ccc3ncnc(Nc4ccc(OCc5cccc(F)c5)c(Cl)c4)c3c2)o1)c1ccccc1 shows inhibition of 2% or higher.
Response: t

Request: Hi team, for CCn1c(-c2nonc2N)nc2ccccc21 , is the recorded inhibition at or above 2%?
Response: f

Request: Record COc1cccc(-n2ncc3c(N/N=C/c4ccc(F)cc4)ncnc32)c1 ; criterion: inhibition no lower than 2%. Met?
Response: t
